# Tested on: Fusarium graminearum (FGR; isolate 73B ISU)
# Format: cell-based
# experimental.conditions: high salt conditions
measurement.name: In vitro antifungal activity (IC50) against F. graminearum (FGR) (ppm)
Numbers only here, please. The scale is ppm.

Exam item: Suppose we examine the substance LB-9827-3B-21E10: LBNL variant generated through gene shuffling of the LB-9827-1 mature peptide coding sequence (LSKYGGECSRAHNTCTYRKGGKNQVVNCPSAANKKCKSDRHHCEYDEYHKRVDCQTPV; Synthetic peptide LB-9827-3B-21E10) ; what In vitro antifungal activity (IC50) against F. graminearum (FGR) value has been reported?
Marked response: 1.25

Exam item: LB-9827-3B-25G5: LBNL variant generated through gene shuffling of the LB-9827-1 mature peptide coding sequence (LSKYGGECSRAHNTCTYRKGGKNQVVKCGTAANKKCKSDRHHCEYDDYHKRVDCQTPV; Synthetic peptide LB-9827-3B-25G5) ?
Marked response: 2.5

Exam item: Record: LB-9827-1: parent antifungal polypeptide from the fungus Monascus ruber, previously disclosed in U.S. Pat. No. 7,306,946 (LSKFGGECSLKHNTCTYLKGGKNHVVNCGSAANKKCKSDRHHCEYDEHHKRVDCQTPV; Monascus ruber) [reference compound]
Marked response: 1.5

Exam item: Then this substance: LB-9827-3B-25F2: LBNL variant generated through gene shuffling of the LB-9827-1 mature peptide coding sequence (LSKYGGECSREHNTCTYLKGGKNQVVACGSAANKKCKRDRHHCEYDDYHKTVDCQTPV; Synthetic peptide LB-9827-3B-25F2)
Marked response: 2.5

Exam item: Same thing, different substance: LB-9827-3A-11E4: LBNL variant generated through gene shuffling of the LB-9827-1 mature peptide coding sequence (LSKYGGECSRKHNTCTYKKGGKNQIVNCPTAANKRCKTDRHHCEYDEYHRRVDCQTPV; LB-9827-3A-11E4)
Marked response: 0.63
